targetUnderTest: T1, rat ASIC1a (rASIC1a-eYFP) (Rattus norvegicus, UniProt P55926)
T1 construct: expressed in transfected cells; host or cells: CHO-K1 (transient)
T1 sequence (P55926 1-526): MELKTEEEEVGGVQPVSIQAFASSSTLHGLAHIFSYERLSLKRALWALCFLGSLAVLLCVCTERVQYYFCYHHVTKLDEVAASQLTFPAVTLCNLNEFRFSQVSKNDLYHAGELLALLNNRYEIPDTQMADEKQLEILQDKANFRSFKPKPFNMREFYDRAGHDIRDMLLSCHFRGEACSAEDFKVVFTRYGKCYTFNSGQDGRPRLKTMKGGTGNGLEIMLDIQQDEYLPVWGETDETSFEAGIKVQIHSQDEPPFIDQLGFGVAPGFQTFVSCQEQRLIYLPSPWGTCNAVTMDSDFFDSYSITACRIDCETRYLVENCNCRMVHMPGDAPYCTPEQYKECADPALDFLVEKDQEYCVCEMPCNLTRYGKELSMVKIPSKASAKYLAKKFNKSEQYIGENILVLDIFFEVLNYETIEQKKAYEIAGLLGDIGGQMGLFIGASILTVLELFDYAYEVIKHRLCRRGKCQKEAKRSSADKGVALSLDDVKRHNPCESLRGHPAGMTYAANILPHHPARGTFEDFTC
assaySummary: FACS-based binding assay, transiently transfected CHO-K1 cells (species selectivity)
measurementSetup: double positive population
endpointLabel: binding to cells expressing rASIC1a-eYFP

**Query** Supply measured binding to cells expressing rASIC1a-eYFP of ASC06-02-IgG1: affinity-matured ASC06 derivative, VH-CDR3 DSFFGRAKGS (SEQ ID NO: 13) (antibody, V domains shown) VH: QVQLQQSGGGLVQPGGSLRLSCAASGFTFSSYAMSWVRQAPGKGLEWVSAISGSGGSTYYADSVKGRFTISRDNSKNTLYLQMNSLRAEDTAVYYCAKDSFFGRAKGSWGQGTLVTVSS VL: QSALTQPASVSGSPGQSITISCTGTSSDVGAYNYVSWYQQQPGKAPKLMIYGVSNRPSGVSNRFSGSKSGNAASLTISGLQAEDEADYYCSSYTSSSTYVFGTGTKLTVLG in your reply.
**Result** bound
